Source: the supplement of paper PMC11061612

tested on: HOP-92 (Non-Small Cell Lung Carcinoma); experiment: combination Emax (second highest fraction inhibited in the dose matrix, 72 h); higher = more inhibition; extreme values may be limits of the assay
measure_name: combination Emax
Numbers only.

compound: C[C@@H](c1ccc2nccn2c1)n1nnc2ncc(-c3cnn(C)c3)nc21 [Savolitinib] + CC1(C)CCC(CN2CCN(c3ccc(C(=O)NS(=O)(=O)c4ccc(NCC5CCOCC5)c([N+](=O)[O-])c4)c(Oc4cnc5[nH]ccc5c4)c3)CC2)=C(c2ccc(Cl)cc2)C1 [Venetoclax] (first compound max 1 µM, 7x7, partner max 1 µM)
combination Emax: 0.201

// next item, combination Emax requested
combination Emax reported for this compound COc1nnc2ccc(N3CCC(c4ccc(OCCN5CCN(C)C(=O)[C@H]5C)cc4)CC3)nn12 [AZD5153] + CN(CC[C@H](CSC1=CC=CC=C1)NC2=C(C=C(C=C2)S(=O)(=O)NC(=O)C3=CC=C(C=C3)N4CCC(CC4)[C@H](C5=CC=CC=C5C6=CC=C(C=C6)Cl)O)S(=O)(=O)C(F)(F)F)CCO [AZD4320] (first compound max 1 µM, 7x7, partner max 1 µM) : 0.936
